Biological target: T1, his-tagged human BCMA protein (ACROBiosystems, catalog # BCA-H522y-100 ug) (human, UniProt Q02223 1-54)
T1 construct: limits of the bought construct are not otherwise stated; also called recombinant his-tagged human BCMA; not shown: his tag of the bought protein
T1 sequence: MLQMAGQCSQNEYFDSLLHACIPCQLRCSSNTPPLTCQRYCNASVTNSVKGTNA
Test: SPR (Biacore T200), antibody captured on anti-human Fc, his-tagged human BCMA as analyte; fit with ka1/kd1/ka2/kd2 (model not named)
Listed here: items and their measured kd1.
Could you write the number and then its unit?

Known results for binders:
Endpoint output: kd1 of BCA7-2D8 antibody (antibody, V domains shown) VH: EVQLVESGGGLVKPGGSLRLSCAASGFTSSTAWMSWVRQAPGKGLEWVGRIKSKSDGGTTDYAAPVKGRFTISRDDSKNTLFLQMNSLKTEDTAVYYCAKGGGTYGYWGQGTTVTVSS VL: QSVLTQPASVSGSPGQSVTISCTGTSSSIGDSYYVSWYQQHPGKAPKLMIYDVSNRPSGVSNRFSGSKSGNTASLTISGLQAEDEADYYCGSYTSSGSYVFGTGTTLTVL . Value? 1.09 s⁻¹

Endpoint output: kd1 of BCA7-2D11 antibody (antibody, V domains shown) VH: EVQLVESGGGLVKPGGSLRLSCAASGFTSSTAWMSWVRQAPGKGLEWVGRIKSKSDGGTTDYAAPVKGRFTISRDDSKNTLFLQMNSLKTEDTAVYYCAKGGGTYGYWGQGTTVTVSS VL: SYELTQPASVSGSPGQSVTISCTGTSSVVGGHDYVSWYQQHPGKAPKLMIYDVSNRPSGVSNRFSGSKSGNTASLTISGLQAEDEADYYCGSYTSSGSYVFGTGTKVTVL . Value? 0.261 s⁻¹

Endpoint output: kd1 of BCA7-2G2 antibody (antibody, V domains shown) VH: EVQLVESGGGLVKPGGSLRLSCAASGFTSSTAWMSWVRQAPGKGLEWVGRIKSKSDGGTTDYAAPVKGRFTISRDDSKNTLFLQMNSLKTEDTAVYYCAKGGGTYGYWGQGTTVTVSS VL: QSVLTQPASVSGSPGQSVTISCTGTSSSVGGRQYVSWYQQHPGKAPKLMIYDVSNRPSGVSNRFSGSKSGNTASLTISGLQAEDEADYYCGSYTSSGSYVFGTGTKLTVL . Value? 0.00376 s⁻¹

Endpoint output: kd1 of BCA7-2E1 antibody (antibody, V domains shown, also called BCA-2E1) VH: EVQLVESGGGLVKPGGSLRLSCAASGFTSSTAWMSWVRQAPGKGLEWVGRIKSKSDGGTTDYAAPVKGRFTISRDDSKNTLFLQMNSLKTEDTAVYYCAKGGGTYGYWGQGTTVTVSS VL: QSALTQPASVSGSPGQSVTISCTGTSSDGGGHTYVSWYQQHPGKAPKLMIYDVSNRPSWVSNRFSGSKSGNTASLTISGLQAEDEADYYCGSYTSSGSYVFGTGTKLTVL . Value? 0.151 s⁻¹

Endpoint output: kd1 of BCA7-2E8 antibody (antibody, V domains shown) VH: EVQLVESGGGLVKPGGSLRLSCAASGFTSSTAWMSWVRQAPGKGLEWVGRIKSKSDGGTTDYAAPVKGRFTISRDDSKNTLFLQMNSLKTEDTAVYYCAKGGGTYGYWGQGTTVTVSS VL: QSVLTQPASVSGSPGQSVTISCTGTSSDVGGYNYVSWYQQHPGKAPKLMIYDVSNRPSGVSNRFSGSKSGNTASLTISGLQAEDEADYYCGSLRSNGDYVFGTGTTLTVL . Value? 0.0202 s⁻¹

Continuing:
Endpoint output: kd1 of BCA7-2C5 antibody (antibody, V domains shown) VH: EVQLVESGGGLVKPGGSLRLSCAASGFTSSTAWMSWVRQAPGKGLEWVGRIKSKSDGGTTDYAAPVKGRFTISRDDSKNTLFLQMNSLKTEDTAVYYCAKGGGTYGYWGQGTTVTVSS VL: QSALTQPASVSGSPGQSVTISCTGTSSAHGGHYYVSWYQQHPGKAPKLMIYDVSNRPSGVSNRFSGSKSGNTASLTISGLQAEDEADYYCGSYTSSGSYVFGTGTKLTVL . Value? 0.0422 s⁻¹
